# tgt: NMDA NR1/NR2B receptor (Homo sapiens, UniProt Q05586+Q13224)
# Sequence (Q13224 27-1484, other chains not shown): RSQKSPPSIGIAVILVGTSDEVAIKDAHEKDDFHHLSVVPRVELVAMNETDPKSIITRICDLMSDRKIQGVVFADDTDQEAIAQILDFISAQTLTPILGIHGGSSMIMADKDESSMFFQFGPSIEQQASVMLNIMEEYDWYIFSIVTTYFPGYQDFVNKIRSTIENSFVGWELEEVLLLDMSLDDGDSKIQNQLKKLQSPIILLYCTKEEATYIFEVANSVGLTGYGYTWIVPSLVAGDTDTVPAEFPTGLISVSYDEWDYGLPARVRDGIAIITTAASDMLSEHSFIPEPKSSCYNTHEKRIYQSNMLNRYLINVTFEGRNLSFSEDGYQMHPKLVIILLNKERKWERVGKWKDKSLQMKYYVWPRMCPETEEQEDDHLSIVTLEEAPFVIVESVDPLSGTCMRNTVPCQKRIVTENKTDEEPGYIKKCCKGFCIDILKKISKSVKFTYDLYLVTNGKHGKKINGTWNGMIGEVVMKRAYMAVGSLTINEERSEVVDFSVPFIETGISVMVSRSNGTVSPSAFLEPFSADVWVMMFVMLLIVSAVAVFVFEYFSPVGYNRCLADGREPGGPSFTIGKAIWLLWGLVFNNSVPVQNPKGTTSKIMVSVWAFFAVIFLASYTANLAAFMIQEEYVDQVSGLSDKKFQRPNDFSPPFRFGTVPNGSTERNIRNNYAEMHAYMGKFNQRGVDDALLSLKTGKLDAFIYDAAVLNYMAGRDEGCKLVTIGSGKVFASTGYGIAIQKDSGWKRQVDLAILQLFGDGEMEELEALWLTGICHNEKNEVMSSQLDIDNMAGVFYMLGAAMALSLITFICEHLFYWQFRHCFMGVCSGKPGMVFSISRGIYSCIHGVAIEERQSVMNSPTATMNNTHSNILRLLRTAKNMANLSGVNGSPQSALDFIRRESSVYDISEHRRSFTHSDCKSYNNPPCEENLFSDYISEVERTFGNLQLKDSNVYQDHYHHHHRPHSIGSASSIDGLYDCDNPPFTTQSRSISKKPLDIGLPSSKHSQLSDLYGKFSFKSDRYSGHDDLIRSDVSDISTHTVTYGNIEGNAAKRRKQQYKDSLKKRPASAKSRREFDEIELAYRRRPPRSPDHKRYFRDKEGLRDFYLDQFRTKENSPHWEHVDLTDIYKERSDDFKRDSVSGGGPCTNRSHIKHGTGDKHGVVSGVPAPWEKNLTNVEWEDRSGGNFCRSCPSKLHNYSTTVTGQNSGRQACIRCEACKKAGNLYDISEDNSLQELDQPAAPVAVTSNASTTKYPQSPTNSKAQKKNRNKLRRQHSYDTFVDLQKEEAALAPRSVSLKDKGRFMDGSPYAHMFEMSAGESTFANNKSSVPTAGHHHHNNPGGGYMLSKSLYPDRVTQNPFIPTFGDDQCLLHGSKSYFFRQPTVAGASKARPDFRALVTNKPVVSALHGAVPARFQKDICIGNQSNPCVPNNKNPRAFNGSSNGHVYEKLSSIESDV
# assay-procedure: In vitro NMDA NR1/NR2B cell assay (FLIPR, intracellular calcium induced by glycine/glutamate)
# stated-conditions: HEK293 cells expressing NMDA NR1/NR2B; 20 μM glycine, 1 μM glutamate; read-out: IC50 (in vitro NR2B affinity, FLIPR assay)
reported-property: IC50 (nM)

A selection of reference data follows.
CNC(=O)[C@@H]1CN(Cc2ccc(Oc3ccccc3)nc2)CCO1; 353
CNC(=O)[C@@H]1CN(Cc2ccc(Oc3ccc(F)cc3)nc2)CCO1; 198
CNC(=O)[C@@H]1CN(Cc2ccc(Oc3ccc(C)cc3F)nc2)CCO1; 117

(a) CNC(=O)[C@@H]1CN(Cc2ccc(Oc3ccc(Cl)cc3)nc2)CCO1
(b) CNC(=O)[C@@H]1CN(Cc2ccc(Oc3ccc(F)cc3F)nc2)CCO1
(c) CNC(=O)[C@@H]1CN(Cc2ccc(Oc3ccccc3)cn2)CCO1
Please put the entries in order of rising IC50. Use the labels to give the requested order. b, a, c
(b: 103 nM, a: 205 nM, c: 457 nM)

(A) CNC(=O)[C@@H]1CN(Cc2ccc(Oc3c(F)cccc3F)cn2)CCO1
(B) CNC(=O)[C@@H]1CN(Cc2ccc(Oc3cc(F)ccc3F)nc2)CCO1
Between A and B , which one shows the larger IC50 value? Selection: enter the item's label. B

(P) CNC(=O)[C@@H]1CN(Cc2ccc(Oc3ccc(Cl)cc3F)cn2)CCO1
(Q) CNC(=O)[C@@H]1CN(Cc2ccc(Oc3ccc(C)cc3C)nc2)CCO1
# return whichever of P and Q has the smaller IC50 Write the label of whichever entry you select. P

(I) CNC(=O)[C@@H]1CN(Cc2ccc(Oc3c(F)cccc3F)nc2)CCO1
(II) CNC(=O)[C@@H]1CN(Cc2ccc(Oc3ccc(C)cc3F)cn2)CCO1
(III) CNC(=O)[C@@H]1CN(Cc2ccc(Oc3ccc(F)cc3)cn2)CCO1
Write the entries in order, lowest recorded IC50 first. Give your ranking as a list of the labels in the requested order. II, I, III
